- Tested on: IGROV-1
- assay-comment: NCI tumour cell line growth inhibition, 48 h
Calls of active or inactive are those of the source. Cut-off read from the data, not from the text of the source: active = GI50 up to about 1.1 µM and inactive = higher.
Outcomes: active, inactive

>  <compound>
O=C(O)c1nc2ccc(C(F)(F)F)cc2nc1Nc1ccc(F)cc1

>  <label-class>
inactive

$$$$
>  <compound>
COc1c2ccoc2c(S(=O)(=O)Nc2ccc(Cl)cc2)c2oc(C)cc(=O)c12

>  <label-class>
inactive

$$$$
>  <compound>
OCCCNCC(O)c1ccc(OCc2ccccc2)c(OCc2ccccc2)c1 (stereo not drawn)

>  <label-class>
inactive

$$$$
>  <compound>
CCC#CCCCCCCCCC(F)C(=O)O (stereo not drawn)

>  <label-class>
inactive

$$$$
>  <compound>
Cc1ccn2c(=O)cc(CN3CCOCC3)nc2c1

>  <label-class>
inactive

$$$$
>  <compound>
Cc1c([N+](=O)[O-])ccc2c(NCCCN(C)C)ccnc12

>  <label-class>
inactive

$$$$
>  <compound>
c1ccc(-c2cccc(-c3ccccn3)n2)nc1 [TERPYRIDINE]

>  <label-class>
active

$$$$
>  <compound>
CCOc1ccc(NC(=O)C(=O)Nn2c(N)nnc2N)cc1

>  <label-class>
inactive

$$$$
>  <compound>
CCc1cc(Cc2cc(CC)c(NC(=O)C3=CC(=O)CC(c4ccc(OC)cc4)O3)c(CC)c2Cl)c(Cl)c(CC)c1NC(=O)C1=CC(=O)CC(c2ccc(OC)cc2)O1 (stereo not drawn)

>  <label-class>
inactive

$$$$
>  <compound>
COC(=O)C1CCC2(CC1)NC(=O)NC2=O (stereo not drawn)

>  <label-class>
inactive

$$$$
>  <compound>
CC1(C)Oc2ccc3c(=O)cc(-c4cccs4)oc3c2C1C(=O)O (stereo not drawn)

>  <label-class>
inactive

$$$$
>  <compound>
C[C@]12CC[C@H](O)CC1=CC[C@@H]1[C@@H]2CC[C@]2(C)C(=N/N)/C(=N\O)C[C@@H]12

>  <label-class>
inactive

$$$$
>  <compound>
OCC1CCCCN1Cc1nc2cc(Cl)ccc2[nH]1 (stereo not drawn)

>  <label-class>
inactive

$$$$
